Biological target: T1, human BMPR1B coated on MSD plates (construct not stated) (human, UniProt O00238 14-126, limits assumed)
T1 construct: also called BMPR1B receptor
T1 sequence: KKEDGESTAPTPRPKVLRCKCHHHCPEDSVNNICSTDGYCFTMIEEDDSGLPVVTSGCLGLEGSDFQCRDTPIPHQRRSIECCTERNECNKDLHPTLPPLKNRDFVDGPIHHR
Test: MSD ELISA, BMP2 blocked
Parameters: concentration or dose not given beside the values
MEASURED QUANTITY: % inhibition (%)
Only the number, expressed in %, is required.

GET /value?item= SC91.19 (antibody, V domains shown) VH: QIQLVQSGPELKKPGETVKISCKASGYTFTTYGMNWVKQAPGKGLKWMGWINTYSGVPSSANDFKGRFAFSLETSASTAYLQINNLKNEDTATYFCARSELRNWYFDVWGTGTTVTVSS VL: SFVMTQTPKFLLVSAGDRVTITCKASQSVGNDVAWYQQKPGQSPKLLIYYASNRYTGVPDRFTGSGYGTDFTFTISTVQAEDLAVYFCQQDYSSPFTFGSGTKLEMK &field=% inhibition returns 32
